- ASSAY METHOD TEXT: qHTS Assay for Identification of Small Molecule Agonists for Thrombopoietin (TPO) Signaling Pathway (AID 917)
- DETAILS: TPO signaling pathway reporter cells, agonist qHTS, stimulated with TPO at its EC50; series mostly up to 38.5 µM
Records with an inconclusive call do not appear. Active and inactive are the calls of the source. Calls follow the shape of the dose curve; as a rule, active = well fitted activation curve with a large enough effect; inconclusive = small, poorly fitted or top-dose-only effect, or effect the other way; inactive = flat fitted curve, though single readings scatter.
Respond only with the outcome that fits, drawn from active, inactive

# SMILES CODE, LABEL CLASS
records = [
    ("CCOC(=O)[C@@]12C[C@@H]1/C(=N/O)c1ccccc1O2", "inactive"),
    ("C[C@@](N)(C(=O)O)c1ccc(C(=O)O)cc1", "inactive"),
    ("O=C(O)c1cc(=O)c2ccc(Cl)cc2[nH]1", "inactive"),
    ("CCCn1c(=O)c2[nH]c(-c3ccc(OCC(=O)Nc4ccc(C#N)cc4)cc3)nc2n(CCC)c1=O", "inactive"),
    ("Fc1cccc(/C=N\\N=C/c2cccc(F)c2)c1", "active"),
    ("COc1ccc2c(c1)c(CC(=O)N1CCOCC1)c(C)n2C(=O)c1ccc(Cl)cc1", "inactive"),
]

Incoming: State the result this test recorded for `CCn1ccnc1C[C@@H]1COc2ccccc2O1` .
Outgoing: inactive

Incoming: State the result this test recorded for `CC(N)=NCCC[C@H](N)C(=O)O` .
Outgoing: inactive

Incoming: State the result this test recorded for `CC(C)(C)NC[C@H](O)COc1cccc2[nH]c(=O)[nH]c12` .
Outgoing: inactive

Incoming: State the result this test recorded for `COc1ccc(CCN(C)CCC[C@@](C#N)(c2ccc(OC)c(OC)c2)C(C)C)cc1OC` .
Outgoing: inactive

Incoming: State the result this test recorded for `S=C(S)O[C@@H]1C[C@@H]2C[C@H]1[C@@H]1CCC[C@H]21` .
Outgoing: inactive

* * *

- ASSAY METHOD TEXT: qHTS for Inhibitors of Plasmodium falciparum (GB4) proliferation (AID 504315); also: nearly all actives have a fitted effect of over 50% in size
- DETAILS: P. falciparum GB4 in erythrocytes, SYBR Green DNA, 72 h; series mostly up to 6.7 µM
Inconclusive results are not listed. Calls of active or inactive are those of the source. The call rests on the fitted dose curve; in most records, active means well fitted inhibition curve with a large enough effect; inconclusive means small, poorly fitted or top-dose-only effect, or effect the other way; inactive means flat fitted curve, though single readings scatter.
Respond only with the outcome that fits, drawn from active, inactive

// known answers, use as guide
# COMPOUND, LABEL CLASS
rows = [
    ("CC(C)=CCCC(C)=CCN1C(=O)[C@@]2(CC(C)=C[C@@H](COCc3ccccc3)O2)c2ccccc21", "inactive"),
    ("CCCCCCC(=O)Cc1cc(OC)c(OC)cc1C=C(C(C)=O)C(=O)OC", "inactive"),
    ("CC(C)=CCCC(C)=CCON=C1C[C@@H](O)[C@@H](O)[C@@H]2[C@H]3C(=O)N(C[C@@H]4CCCO4)C(=O)[C@@H]3CC[C@H]12", "inactive"),
    ("CCN1C(=O)N[C@@H](c2ccccc2)[C@@H](C(=O)OC)[C@H]1C", "inactive"),
    ("COc1ccc2c(c1)[C@@]1(OCCC=C[C@@H]1C)C(=O)N2Cc1ccc(Br)cc1", "inactive"),
    ("COC(=O)C(=Cc1cc(Br)c(OC)c(Br)c1)C(=O)OC", "inactive"),
    ("COC(=O)CC1=CO[C@@H](O)[C@@H]2C(CO)=CC[C@@H]12", "inactive"),
    ("COCC=CC1=CC2=CC(=O)C(C)(OC(=O)c3cnc4ccccc4n3)C(=O)C2=CN1CCc1c[nH]c2ccccc12 (configuration not stated)", "inactive"),
    ("CCCCC1=CC2=CC(=O)C(C)(O)C(=O)C2=CO1 (configuration not stated)", "inactive"),
    ("COC(=O)CCC(=O)OC1(C)C(=O)C=C2C=C(C3CC3)N(Cc3ccco3)C=C2C1=O (configuration not stated)", "inactive"),
]

Incoming: State the result this test recorded for `Cc1ccc(S(=O)(=O)OC[C@@H]2CN3[C@H](c4ccc(Br)cc4)[C@H](C)CC[C@H]3C(=O)O2)cc1` .
Outgoing: inactive

Incoming: State the result this test recorded for C=CCN1C(=O)[C@]2(O[C@H](C)CC3=CCCC32)c2c(Br)cccc21 (some centres not stated) .
Outgoing: inactive

Incoming: State the result this test recorded for `COC(=O)C[C@H]1c2ccccc2C2=C(C[C@@H](C)[C@H]3C(=O)NC(=O)[C@@H]23)N1C(=O)OC` .
Outgoing: inactive

Incoming: State the result this test recorded for `CC(=O)OC[C@H]1O[C@H](C#CCCCc2ccccc2)C=C[C@H]1OC(C)=O` .
Outgoing: inactive

Incoming: State the result this test recorded for `CCCC[C@@H]1CN2[C@@H](CC[C@H](C)[C@@H]2c2ccc(Br)cc2)C(=O)O1` .
Outgoing: inactive

Incoming: State the result this test recorded for CC1(OC(=O)c2ccc(Cl)nc2)C(=O)C=C2C=C(c3ccsc3)OC=C2C1=O (configuration not stated) .
Outgoing: inactive

Incoming: State the result this test recorded for `CC1(C)CC(=O)C2=C(C1)O[C@@]1(c3ccsc3)Cc3cc(C#N)ccc3[C@H]2O1` .
Outgoing: inactive

Incoming: State the result this test recorded for O=C1CCCC=C1C(O)COCc1ccccc1 (configuration not stated) .
Outgoing: inactive

Incoming: State the result this test recorded for `O=P1(O)Oc2c(-c3ccccc3)cc3ccccc3c2-c2c(c(-c3ccccc3)cc3ccccc23)O1` .
Outgoing: inactive

Incoming: State the result this test recorded for `COC(=O)N[C@H](C[N+](=O)[O-])c1cccc(C)c1` .
Outgoing: inactive

Incoming: State the result this test recorded for `COC(=O)N[C@H](CC(C)=O)c1cccc(F)c1` .
Outgoing: inactive

Incoming: State the result this test recorded for `C=CCNC(=O)N1CCc2nc(-c3ccc(OC)cc3C)c3c(c2C1)CO[C@@H](c1ccccc1)C3` .
Outgoing: inactive

Incoming: State the result this test recorded for `CCCCc1nc2c(c3c1C[C@H](C)OC3)CN(C(=O)c1ccco1)CC2` .
Outgoing: inactive

Incoming: State the result this test recorded for `CCN1C(=NCc2ccccc2)N[C@@H](c2ccccc2)[C@H](C(=O)OC)[C@H]1C` .
Outgoing: inactive

Incoming: State the result this test recorded for `CC#C[C@H](C)[C@@H](OCOC)[C@H](C[C@H](C)Cc1cc(Br)cc(OCc2ccccc2)c1OC)OC` .
Outgoing: active

Incoming: State the result this test recorded for `COC(=O)[C@H]1O[C@@H](c2c(OC)c(OC)c(C)c(OC)c2OC)[C@H](C)[C@@H](O)[C@@H]1C` .
Outgoing: inactive

Incoming: State the result this test recorded for `CCOC(=O)CCN1C(=O)[C@@H]2[C@H]3[C@H](O)[C@H](O)CC(=NNC(=O)OCc4ccc(OC)cc4)[C@H]3CC[C@H]2C1=O` .
Outgoing: inactive

Incoming: State the result this test recorded for CC(=O)C1=CN(CCc2c[nH]c3ccccc23)C(=O)NC1c1ccccc1 (configuration not stated) .
Outgoing: inactive

Incoming: State the result this test recorded for `CCC(=O)C[C@@H](NC(=O)OC)c1ccccc1` .
Outgoing: inactive

Incoming: State the result this test recorded for COc1cc2c(cc1OC)C1OC(c3ccsc3)(C2)Oc2cc(C)oc(=O)c21 (configuration not stated) .
Outgoing: inactive

Incoming: State the result this test recorded for CCOC(=O)CN1C(=O)NC(c2cccc(F)c2)C(C(C)=O)=C1C (configuration not stated) .
Outgoing: inactive

Incoming: State the result this test recorded for `COc1cccc2c1[C@H](C=Cc1ccccc1)[C@@H]([C@H](O)CO)OC2` .
Outgoing: inactive

Incoming: State the result this test recorded for `C[C@@H]1C=CCCO[C@]12C(=O)Nc1ccccc12` .
Outgoing: inactive

The measured values listed here are drawn from PubChem BioAssay (NCATS).
